The following molecules are shown together with reported growth values.
Tested on: SF-539 CNS
protocol-summary: NCI-60 one-dose screen, 48 h (100 = growth as untreated, 0 = no growth, -100 = all killed)
condition-details: 10 µM unless noted
Experimental: Cells are grown in 96 well plates and exposed to the test compound for 48 hours. Compounds are tested at a single concentration, which is 10^-5 M for most compounds. The reported endpoint is percent growth (GI% or GIPRCNT), where numbers from 0 - 100% represent growth inhibition, and numbers from -100% - 0 represent cell death. For example, a value of 40 represents 60% growth inhibition. A value of 0 means no net growth occurred over the course of the experiment. […]
The panel holds about 83,000 compounds, 20% with a hit somewhere; the sample as a whole holds those more often.
Express it in %; write the number only.

{"molecule": "C=C1C(=O)O[C@H]2[C@H]1CC/C(COC(=O)NCc1c[nH]c3ccc(OC)cc13)=C\\CC[C@@]1(C)O[C@@H]21", "target-of-assay": "SF-539 CNS", "growth [%]": -23.3}

# next molecule below
Asked: Entry under review: N/C(=C\C(=O)n1nc(-c2ccccc2)cc1N)c1ccccc1 . Reported growth?
Given back: 59.4
